# MEASURED_TARGET: T1, CTNI quality control recombinant protein (PK2-CTNI-1, 170120, produced by the applicant) (human, UniProt P19429 2-210, limits assumed)
# T1 construct: also called cardiac troponin I
# T1 sequence (P19429 2-210 limits assumed): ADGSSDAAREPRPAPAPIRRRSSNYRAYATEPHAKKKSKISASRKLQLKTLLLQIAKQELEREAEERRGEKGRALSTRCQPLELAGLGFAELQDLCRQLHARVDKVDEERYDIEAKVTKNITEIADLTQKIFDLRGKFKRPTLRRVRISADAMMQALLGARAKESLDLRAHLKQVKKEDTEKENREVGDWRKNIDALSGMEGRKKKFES
# ASSAY_PROTOCOL: indirect ELISA, cTnI coated 1 ug/ml, antibody 40 ug/ml
hey, just use condition met if measured OD 450 nm (reference 630 nm) is less than 2 OD, otherwise condition not met

Sample answers from the record:
Mutation 3 (antibody, V domains shown, built as for Mutation 1) VH: EVQLQQSGAELVKPGASVKLSCTASGFNLKEYFMHWMKQRTEQGLDWIGRIDPEDAETRYAPEFQGKATITADTSSNTAYLQLSTLTSEDTAVYYCARYYTSYIPFVYWGQGTLVTASA VL: DVVMTQTPLSLSVSLGDQASISCRSSQSIIYSNRHTYLHWYLQKPGQSPKLLIFQISQRFSGVPDRFSGSGSGTDFTLKINRVEAEDLGVYFCSQSTHLPFTFGSGTKLEIKR; condition not met
Mutation 1 (antibody, V domains shown, No residue numbers are printed, so each chain is built as FR1-CDR1-FR2-CDR2-FR3-CDR3-FR4-constant) VH: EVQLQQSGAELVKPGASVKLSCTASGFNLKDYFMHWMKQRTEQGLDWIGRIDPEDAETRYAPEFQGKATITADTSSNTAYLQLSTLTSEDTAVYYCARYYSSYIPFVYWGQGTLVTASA VL: DVVMTQTPLSLSVSLGDQASISCRSSQSIIYSNRHTYLHWYLQKPGQSPKLLIFQISNRFSGVPDRFSGSGSGTDFTLKINRVEAEDLGVYFCSQSTHLPFTFGSGTKLEIKR; condition not met
Mutation 5 (antibody, V domains shown, built as for Mutation 1) VH: EVQLQQSGAELVKPGASVKLSCTASGFNLKDYFMHWMKQRTEQGLDWIGRIEPEDAETRYAPEFQGKATITADTSSNTAYLQLSTLTSEDTAVYYCARYYSSYIPFVYWGQGTLVTASA VL: DVVMTQTPLSLSVSLGDQASISCRSSQSIIYSNKHTYLHWYLQKPGQSPKLLIFQISQRFSGVPDRFSGSGSGTDFTLKINRVEAEDLGVYFCSNSTHLPFTFGSGTKLEIKR; condition met

Let's switch to this binder now.
Determine whether this binder shows OD 450 nm (reference 630 nm) lower than 2 OD (ties excluded): Mutation 2 (antibody, V domains shown, built as for Mutation 1) VH: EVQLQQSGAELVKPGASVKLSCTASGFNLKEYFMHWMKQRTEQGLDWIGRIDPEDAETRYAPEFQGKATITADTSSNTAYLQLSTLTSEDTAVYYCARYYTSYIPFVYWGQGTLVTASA VL: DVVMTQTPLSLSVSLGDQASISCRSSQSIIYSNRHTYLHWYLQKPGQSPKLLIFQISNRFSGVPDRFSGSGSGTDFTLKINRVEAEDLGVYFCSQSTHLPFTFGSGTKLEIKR
condition not met
